Origin of values: PubChem BioAssay (NCI)

- System: SR leukemia
- PROTOCOL: NCI tumour cell line growth inhibition, 48 h
QUANTITY: TGI

Below, 4 molecules whose answers are already recorded.
O=c1nc2n(CCO)c(-c3ccccc3)c(-c3ccccc3)nc-2c(=O)[nH]1 : > 100 µM
OCCN(CO)CN(CN(CO)CCO)c1nc(N(CN(CO)CCO)CN(CO)CCO)nc(N(CN(CO)CCO)CN(CO)CCO)n1 : 2.62 ng/mL
COc1cc(C)cc2c1OC(c1ccccc1)CC2=O (stereo not given) : > 100 µM
Cc1sc2ncnc(NCCc3ccccc3)c2c1C : 26.6 µM

Let's switch to this molecule now.
Give reported TGI value for N#Cc1c(NC(=O)c2cccs2)[n+]([O-])c2ccccc2[n+]1[O-]
> 100 µM
